Here the recorded λAbs max is given for each entry.
# assay_explanation: Absorption spectra / extinction coefficients
# Assay type: physicochemical
# condition_set: pro-fluorophores, PBS buffer containing 0.6 % glutaraldehyde at pH 7
measurement_kind: λAbs max (nm)

> print(dat)
                                   molecule  assay.value
1  CCCNC(=O)c1ccc2c(c1)C(=O)OC21c2ccc(OC(C)=O)cc2Oc2cc(OC(C)=O)ccc21 [Example 5-PFDA]          291
2  CCCNC(=O)c1ccc2c(c1)C(=O)OC21c2cc(F)c(OC(C)=O)cc2Oc2cc(OC(C)=O)c(F)cc21 [Example 5-POGDA]          303
3  CC(=O)Oc1cc2c(cc1F)C1(OC(=O)c3cc(C(=O)O)ccc31)c1cc(F)c(OC(C)=O)cc1O2 [Example 5-COGDA]          300
4  CCCOC(=O)c1ccc2c(c1)C(=O)OC21c2ccc(OC(C)=O)cc2Oc2cc(OC(C)=O)ccc21 [Example 5-PFDAE]          295
5  CCCNC(=O)c1ccc2c(c1)C(=O)OC21c2cc(F)c(OCOC(C)=O)cc2Oc2cc(OCOC(C)=O)c(F)cc21 [Example 5-POGAM]          302

---

# assay_explanation: Absorption spectra / extinction coefficients
# Assay type: physicochemical
# condition_set: pro-fluorophores, PBS buffer containing 0.6 % glutaraldehyde at pH 7
measurement_kind: E (extinction coefficient) (M⁻¹ cm⁻¹)

> print(dat)
                            compound.smiles            measurement.kind  assay.value
1  CCCNC(=O)c1ccc2c(c1)C(=O)OC21c2cc(F)c(OCOC(C)=O)cc2Oc2cc(OCOC(C)=O)c(F)cc21  E (extinction coefficient)        11165
2  CCCNC(=O)c1ccc2c(c1)C(=O)OC21c2ccc(OC(C)=O)cc2Oc2cc(OC(C)=O)ccc21  E (extinction coefficient)         9284
3  CC(=O)Oc1cc2c(cc1F)C1(OC(=O)c3cc(C(=O)O)ccc31)c1cc(F)c(OC(C)=O)cc1O2  E (extinction coefficient)         6979
4  CCCOC(=O)c1ccc2c(c1)C(=O)OC21c2ccc(OC(C)=O)cc2Oc2cc(OC(C)=O)ccc21  E (extinction coefficient)         7903
5  CCCNC(=O)c1ccc2c(c1)C(=O)OC21c2cc(F)c(OC(C)=O)cc2Oc2cc(OC(C)=O)c(F)cc21  E (extinction coefficient)         9784

---

# assay_explanation: Absorption spectra / extinction coefficients
# Format: physicochemical
# condition_set: fluorophores, 0.1 M NaOH solution at pH 12.7
Here the recorded λAbs max is given for each entry.
measurement_kind: λAbs max

> print(dat)
                                   compound  assay.value
1  O=C(O)c1ccc2c(c1)C(=O)OC21c2ccc(O)cc2Oc2cc(O)ccc21 [Example 5-CF, 5-carboxyfluorescein, reference compound]       493 nm
2  O=C(O)c1ccc2c(c1)C(=O)OC21c2cc(F)c(O)cc2Oc2cc(O)c(F)cc21 [Example 5-COG, 5-carboxy Oregon Green™, reference compound]       493 nm
3  CCCNC(=O)c1ccc2c(c1)C(=O)OC21c2cc(F)c(O)cc2Oc2cc(O)c(F)cc21       495 nm
4  CCCNC(=O)c1ccc2c(c1)C(=O)OC21c2ccc(O)cc2Oc2cc(O)ccc21       495 nm

---

Here the recorded λem is given for each entry.
# assay_explanation: Fluorometric measurements / quantum yield
# Format: physicochemical
# condition_set: 0.1 M NaOH at pH 12.7
measurement_kind: λem (nm)

> print(dat)
                                   molecule  assay.value
1  O=C(O)c1ccc2c(c1)C(=O)OC21c2cc(F)c(O)cc2Oc2cc(O)c(F)cc21 [Example 5-COG, 5-carboxy Oregon Green™, reference compound]          517
2  CCCNC(=O)c1ccc2c(c1)C(=O)OC21c2ccc(O)cc2Oc2cc(O)ccc21 [Example 5-PFA]          518
3  O=C(O)c1ccc2c(c1)C(=O)OC21c2ccc(O)cc2Oc2cc(O)ccc21 [Example 5-CF, 5-carboxyfluorescein, reference compound]          517
4  CCCNC(=O)c1ccc2c(c1)C(=O)OC21c2cc(F)c(O)cc2Oc2cc(O)c(F)cc21 [Example 5-POG]          518

---

# assay_explanation: Fluorometric measurements / quantum yield
# Format: physicochemical
# condition_set: 0.1 M NaOH at pH 12.7
measurement_kind: λex

> print(dat)
                                   compound   assay.value
1  O=C(O)c1ccc2c(c1)C(=O)OC21c2ccc(O)cc2Oc2cc(O)ccc21 [Example 5-CF, 5-carboxyfluorescein, reference compound]  491 ± 0.7 nm
2  O=C(O)c1ccc2c(c1)C(=O)OC21c2cc(F)c(O)cc2Oc2cc(O)c(F)cc21 [Example 5-COG, 5-carboxy Oregon Green™, reference compound]  491 ± 1.2 nm
3  CCCNC(=O)c1ccc2c(c1)C(=O)OC21c2ccc(O)cc2Oc2cc(O)ccc21  493 ± 0.3 nm
4  CCCNC(=O)c1ccc2c(c1)C(=O)OC21c2cc(F)c(O)cc2Oc2cc(O)c(F)cc21  493 ± 0.6 nm

---

# assay_explanation: Absorption spectra / extinction coefficients
# Type: physicochemical
# condition_set: fluorophores, 0.1 M NaOH solution at pH 12.7
measurement_kind: E (extinction coefficient)

> print(dat)
                                   compound            assay.value
1  CCCNC(=O)c1ccc2c(c1)C(=O)OC21c2cc(F)c(O)cc2Oc2cc(O)c(F)cc21  74835 ± 4762 M⁻¹ cm⁻¹
2  O=C(O)c1ccc2c(c1)C(=O)OC21c2cc(F)c(O)cc2Oc2cc(O)c(F)cc21 [Example 5-COG, 5-carboxy Oregon Green™, reference compound]  83136 ± 4452 M⁻¹ cm⁻¹
3  O=C(O)c1ccc2c(c1)C(=O)OC21c2ccc(O)cc2Oc2cc(O)ccc21 [Example 5-CF, 5-carboxyfluorescein, reference compound]  76474 ± 4009 M⁻¹ cm⁻¹
4  CCCNC(=O)c1ccc2c(c1)C(=O)OC21c2ccc(O)cc2Oc2cc(O)ccc21  73490 ± 8454 M⁻¹ cm⁻¹

---

# assay_explanation: Fluorometric measurements / quantum yield
# Type: physicochemical
# condition_set: 1 µM in 0.1 M NaOH at pH 12.7, excitation 488 nm, standard fluorescein, n = 3
measurement_kind: Φ (quantum yield)

> print(dat)
                                   compound    assay.value
1  O=C(O)c1ccc2c(c1)C(=O)OC21c2ccc(O)cc2Oc2cc(O)ccc21 [Example 5-CF, 5-carboxyfluorescein, reference compound]  0.963 ± 0.004
2  CCCNC(=O)c1ccc2c(c1)C(=O)OC21c2ccc(O)cc2Oc2cc(O)ccc21 [Example 5-PFA]  0,835 ± 0.002
3  O=C(O)c1ccc2c(c1)C(=O)OC21c2cc(F)c(O)cc2Oc2cc(O)c(F)cc21 [Example 5-COG, 5-carboxy Oregon Green™, reference compound]  0,912 ± 0.011
4  CCCNC(=O)c1ccc2c(c1)C(=O)OC21c2cc(F)c(O)cc2Oc2cc(O)c(F)cc21 [Example 5-POG]  0,902 ± 0.013
